Numbers sourced from paper PMC10304164.

assay: Cytotoxic activity, Alamar Blue; format: cell-based; conditions: mouse; murine macrophages J774A.1, 24 h
Listed below: CC50 at 24 h values for each entry.
Could you give me the number in µM? Just the number is fine.

Examples with their reported CC50 at 24 h follow.
Molecular string | Unit label | CC50 at 24 h
Cc1cc(O)c([C@]2(C)CC[C@@H]3C[C@@]32C)cc1Br | µM | 80.1
Cc1cc2c(cc1Br)[C@]1(C)CC[C@H](C)[C@]1(C)O2 | µM | 1100

[in] Item C=C1[C@@H](C)CC[C@@]1(C)c1cc(Br)c(C)cc1O has what recorded CC50 at 24 h?
[out] 24.6

---

assay: Cytotoxic activity, Alamar Blue; format: cell-based; settings: mouse, J774A.1 macrophages; murine macrophages J774A.1, 24 h
Listed below: CC50 at 24 h values for each entry.
Could you give me the number in µM? Just the number is fine.

Examples with their reported CC50 at 24 h follow.
Molecule | Measured quantity | Recorded measurement
CC1=CC(=O)C([C@]2(C)CC[C@@H]3C[C@@]32C)=CC1=O | CC50 at 24 h | 42.1
Cc1ccc([C@]2(C)CC[C@@H]3C[C@@]32C)c(O)c1 | CC50 at 24 h | 70.1

Let us move to another entry and its CC50 at 24 h.
[in] Item CCCCCCCCCCCCCCCCOP(=O)([O-])OCC[N+](C)(C)C [Miltefosine, miltefosine, reference compound] has what recorded CC50 at 24 h?
[out] 72.2
